system.under.test: human V1a receptor (Homo sapiens, UniProt P37288)
Construct: expressed in transfected cells; host or cells: CHO K1 (ATCC), also stably transfected with a modified aequorin
Sequence (P37288 whole entry): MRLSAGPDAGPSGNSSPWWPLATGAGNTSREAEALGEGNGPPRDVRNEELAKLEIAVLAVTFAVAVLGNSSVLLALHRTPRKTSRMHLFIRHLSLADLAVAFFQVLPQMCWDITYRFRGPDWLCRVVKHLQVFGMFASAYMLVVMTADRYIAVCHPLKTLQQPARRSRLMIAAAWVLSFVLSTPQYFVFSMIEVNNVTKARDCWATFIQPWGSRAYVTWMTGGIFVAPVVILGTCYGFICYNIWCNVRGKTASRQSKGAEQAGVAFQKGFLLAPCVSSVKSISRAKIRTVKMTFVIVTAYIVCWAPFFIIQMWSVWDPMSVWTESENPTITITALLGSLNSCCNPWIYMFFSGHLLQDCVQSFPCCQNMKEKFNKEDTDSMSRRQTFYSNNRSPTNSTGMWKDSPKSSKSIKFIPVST
procedure.details: Cellular in vitro assay for vasopressin receptor activity, V1a cell line (aequorin luminescence)
Format: cell-based
condition.info: CHO cell line transfected with human V1a receptor; agonist [Arg8]-vasopressin at EC50 concentration; read-out: IC50hV1a
Protocol: B-1. Cellular In Vitro Assay for Determining Vasopressin Receptor Activity The identification of agonists and antagonists of the V1a and V2 vasopressin receptors from humans, rats and dogs as well as the quantification of the activity of the compounds of the invention is carried out using recombinant cell lines. […] The bioluminescence of the cell lines is detected using a suitable luminometer [Milligan G, Marshall F, Rees S, Trends in Pharmacological Sciences 17, 235-237 (1996)]. […]
property.name: IC50 (nM)

(a) CC(F)c1nc(Cn2nc(-c3ccc(Cl)cc3)n(C[C@H](O)C(F)(F)F)c2=O)nn1-c1ccccc1OC(F)(F)F (single isomer, unassigned) [Example 27]
(b) CC(F)c1nc(Cn2nc(-c3ccc(Cl)cc3)n(C[C@H](O)C(F)(F)F)c2=O)nn1-c1c(F)cccc1Cl (mixture of isomers) [Example 44]
[ask] Problem: Given the entries a and b , determine which has the lower reported IC50. Lab note: record the label of whichever item you select.
[reply] b
